molecular target: IL16_4, Q14005; experiment: holdup assay; set-up: key: below the threshold = too weak to quantify, mostly under pKd 3.1 to 4; conditions: plain residues with an end cap or a label only (N-terminal biotin on a linker: ado-ado)
Sequence (Q14005 1229-1329): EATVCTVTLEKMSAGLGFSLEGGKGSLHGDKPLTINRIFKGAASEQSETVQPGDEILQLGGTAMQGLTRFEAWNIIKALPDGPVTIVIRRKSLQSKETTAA

{"columns": ["binder", "pKd"],
 "data": [
  ["KKTPVSRSHL [SLC22A3, O75751]", "below the threshold"],
  ["STYCDYTIEI [FAM71C, Q8NEG0]", "below the threshold"],
  ["DAAHHDESNC [FMNL3, Q8IVF7]", "below the threshold"],
  ["KPDKQEEFYA [SDC3, O75056]", "below the threshold"]
]}
